System: Meloidogyne spp.
Method summary: Nematocidal activity against Meloidogyne spp., application with already cultivating crop (tomato in pots)
Assay type: in vivo
Test context: tomatoes, 4,000 g/hectare, repeated treatment after transplantation (already cultivating crop), survey 60 days after transplantation
Quantity: Weight of plant (g)
Unit g implied. Number only.

Some entries whose results are on file:
{"Molecule": "Cc1nnc(S(=O)(=O)CCC(F)=C(F)F)s1", "System": "Meloidogyne spp.", "Weight of plant [g]": 33}
{"Molecule": "O=S(=O)(CCC(F)=C(F)F)c1ncc(Cl)s1 [CR1, reference compound]", "System": "Meloidogyne spp.", "Weight of plant [g]": 25}
{"Molecule": "Cc1nnc([S+]([O-])CCC(F)=C(F)F)s1 (stereo not shown)", "System": "Meloidogyne spp.", "Weight of plant [g]": 36}

# input for lookup
Exercise: Read the entry "CC(C)c1nnc(S(=O)(=O)CCC(F)=C(F)F)s1" and write its reported Weight of plant.
Key: 40
